Entry source: the supplement of paper PMC10065799

# Tested on: c-Src;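 also: 11-residue human phosphosite peptides and single-mutation variants displayed on the E. coli surface, counted by deep sequencing, each peptide's frequency after selection divided by its frequency in the unselected input library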;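 also: frequency after pTyr selection over input frequency; kinase dosed for 20-30% of maximal phosphorylation in three min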
# ASSAY EXPLANATION: phosphorylation enrichment, bacterial display (enrichment ratio); higher = better substrate or ligand; peptides without Tyr show the background
Tick class 1 if phosphorylation enrichment is 0.5 or greater. Tick class 0 if phosphorylation enrichment is less than 0.5.

Known results for sequences:
Ask: In plain terms: is recorded phosphorylation enrichment at least 0.5 for GKANRYFSPNF [PTEN_Y336_D331G] ?
Result: class 1

Ask: In plain terms: is recorded phosphorylation enrichment at least 0.5 for LLVVLYKFRCF [PSEN1_Y154_Y159F_YF] ?
Result: class 1

Ask: In plain terms: is recorded phosphorylation enrichment at least 0.5 for LSNPAYCLLLA [DDR1_Y513_R514C] ?
Result: class 1

Ask: In plain terms: is recorded phosphorylation enrichment at least 0.5 for RLLVVYPSTQR [HBB_Y36_W38S] ?
Result: class 1

Continuing:
Ask: In plain terms: is recorded phosphorylation enrichment at least 0.5 for LNCDRYSAGLL [PDE6A_Y275_V277A] ?
Result: class 0

Ask: In plain terms: is recorded phosphorylation enrichment at least 0.5 for RESVSYLFSHV [PRPS1_Y311_G306R] ?
Result: class 1

Ask: In plain terms: is recorded phosphorylation enrichment at least 0.5 for SVTCTYSLALN [TP53_Y126_P128L] ?
Result: class 1
